Reference source: patent US20190367631A1

TEST_TARGET: T1, human MSR1 extracellular domain expressed with a N-terminal nonahistidine tag (His9-hMSR1); R&D Systems, Cat … (human, UniProt P21757 77-451)
T1 construct: extracellular domain; also called His-hMSR1; 9xHis-hMSR1; not shown: N-terminal nonahistidine tag
T1 sequence (looked up): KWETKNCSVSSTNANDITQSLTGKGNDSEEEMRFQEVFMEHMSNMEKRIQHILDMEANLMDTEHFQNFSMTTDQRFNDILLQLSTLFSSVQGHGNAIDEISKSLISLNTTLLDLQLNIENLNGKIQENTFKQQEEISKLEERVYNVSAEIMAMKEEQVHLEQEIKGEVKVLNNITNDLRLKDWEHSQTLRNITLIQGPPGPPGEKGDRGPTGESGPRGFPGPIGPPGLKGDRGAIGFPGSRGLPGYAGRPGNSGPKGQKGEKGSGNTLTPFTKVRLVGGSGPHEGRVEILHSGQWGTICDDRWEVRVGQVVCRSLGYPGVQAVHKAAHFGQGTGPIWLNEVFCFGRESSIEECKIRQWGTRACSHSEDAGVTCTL
TEST_PROTOCOL: SPR Biacore, 25 C, antibody captured;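 further: rates from 1:1 fit with mass transport limitation of real-time sensorgrams, HEPES-buffered saline with EDTA and Tween-20 at pH 7.4, KD and t½ derived from the kinetic rates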
MEASURED_ATTRIBUTE: Kd (nM)
Write the value in nM as a bare number.

Would you please look over these solved cases?
H1H27731P-N297Q (antibody, V domains shown, Human IgG1 Fc with N297Q point mutation) VH: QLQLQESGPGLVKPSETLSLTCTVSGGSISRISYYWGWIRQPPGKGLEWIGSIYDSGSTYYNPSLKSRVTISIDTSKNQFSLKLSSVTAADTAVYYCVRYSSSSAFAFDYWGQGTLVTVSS VL: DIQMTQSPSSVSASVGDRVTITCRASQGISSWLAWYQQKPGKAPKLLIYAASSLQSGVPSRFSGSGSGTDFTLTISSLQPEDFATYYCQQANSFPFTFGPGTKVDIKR
0.174
H1H27734P-N297Q (antibody, V domains shown, Human IgG1 Fc with N297Q point mutation) VH: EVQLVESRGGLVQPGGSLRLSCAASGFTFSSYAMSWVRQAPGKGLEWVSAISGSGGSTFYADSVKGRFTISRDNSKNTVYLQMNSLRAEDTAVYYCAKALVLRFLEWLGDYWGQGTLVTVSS VL: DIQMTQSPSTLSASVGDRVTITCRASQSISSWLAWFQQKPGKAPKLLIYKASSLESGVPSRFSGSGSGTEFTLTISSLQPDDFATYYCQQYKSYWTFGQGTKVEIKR
2.64
H1H27729P-N297Q (antibody, V domains shown, Human IgG1 Fc with N297Q point mutation) VH: QVQLVESGGGLVKPGGSLRLSCAASGFIFSDYYMSWIRQAPGKGLEWVSYISSSGTTIYGDSVKGRFTMSRDNAKNSLYLQMNSLRAEDTAVYYCARNYALFDYWGQGTLVTVSS VL: DIQMTQSPSSLSASVGDRVTITCQASQDISKYLNWYQQKPGKAPKLLIYYTSNLETGVPSRFSGSGSGTDFTFTISSLQPEDIATYYCHQSDYLPFTFGPGTKVDIKR
5.45

// switching to the query binder
Query: Kd lookup needed for H1H27739P-N297Q (antibody, V domains shown, Human IgG1 Fc with N297Q point mutation) VH: EVQLVESGGGLVQPGGSLRLSCTASGFTFSSYAMSWVRQAPGKGLEWVSAISGTGSSTYFTDSVKGRFAISRDNSKNTLYLQMNSLRAEDTAVYYCAKDGEWLSTVTLFDYWGQGTLVTVSS VL: EIVMTQSPATLSVSPGERATLSCRASQSVSSNLAWYQQKPGQAPRLLIYGASTRATGIPARFSGSGSGTDFTLTISSLQSEDFALYYCQQYFIWPPHPTFGPGTKVDIKR , thanks.
Result: 2.74
